Where do these numbers come from? They come from PubChem BioAssay (NCATS).

- Tested on: ATS95
- test_protocol: qHTS profiling for inhibitors of Plasmodium falciparum proliferation (AID 504749); further: nearly all actives have a fitted effect of over 60% in size
- study_conditions: P. falciparum in erythrocytes, SYBR Green DNA, 72 h; series mostly up to 28.7 µM
Results filed as inconclusive are left out. Activity calls are given as the source filed them. The call rests on the fitted dose curve; in most records, active means well fitted inhibition curve with a large enough effect; inconclusive means small, poorly fitted or top-dose-only effect; inactive means flat fitted curve, though single readings scatter.
// one of active, inactive, no free text

Input line: What is the recorded call for this compound in the test? `COC(=O)Nc1nc2ccc(C(=O)c3cccs3)cc2[nH]1`
Output line: inactive

Input line: Which outcome was entered for the compound `Clc1ccc2nsnc2c1NC1=NCCN1` in this test?
Output line: inactive

Input line: For `CS(=O)(=O)Nc1ccc([N+](=O)[O-])cc1Oc1ccccc1` , which call appears in the assay record?
Output line: inactive
